Could you please report measured Bliss excess for the items listed next?
- System: EW-11 (Ewing's Sarcoma)
- procedure details: Bliss excess, mean over the matrix (fraction); higher = more synergy
The reply should be a number, written without any unit.

Entry under test: C[C@@H](Oc1cc(-c2cnn(C3CCNCC3)c2)cnc1N)c1c(Cl)ccc(F)c1Cl [Crizotinib] + CC1=C(C(=CC=C1)Cl)NC(=O)C2=CN=C(S2)NC3=CC(=NC(=N3)C)N4CCN(CC4)CCO [Dasatinib] (first compound max 10 µM, 7x7, partner max 2 µM) . Its Bliss excess was -0.0571

Entry under test: NC1(C(=O)N[C@@H](CCO)c2ccc(Cl)cc2)CCN(c2ncnc3[nH]ccc23)CC1 [Capivasertib] + CC(C)n1c(=O)n(C)c2cnc3cc(F)c(-c4ccc(OCCCN5CCCCC5)nc4)cc3c21 [AZD1390] (first compound max 10 µM, 7x7, partner max 0.3 µM) . Its Bliss excess was -0.0438

Entry under test: C[C@@H](Nc1cc(F)cc(F)c1)c1cc(C(=O)N(C)C)cc2c(=O)cc(N3CCOCC3)oc12 [AZD8186] + C1CN(CCC1(C(=O)N[C@@H](CCO)C2=CC=C(C=C2)Cl)N)C3=NC=NC4=C3C=CN4 [AZD5363] (first compound max 10 µM, 7x7, partner max 10 µM) . Its Bliss excess was -0.0265

Entry under test: Cc1c2c(nn1C)CSCc1cc(n(C)n1)CSc1cc(c3ccccc3c1)OCCCc1c(C(=O)O)n(C)c3c-2c(Cl)ccc13 [AZD5991] + Nc1ccn([C@@H]2O[C@H](CO)[C@@H](O)C2(F)F)c(=O)n1 [Gemcitabine] (first compound max 1 µM, 7x7, partner max 0.3 µM) . Its Bliss excess was -0.0422

Entry under test: CN(CCO)CC[C@H](CSc1ccccc1)Nc1ccc(S(=O)(=O)NC(=O)c2ccc(N3CCC([C@@H](O)c4ccccc4-c4ccc(Cl)cc4)CC3)cc2)cc1S(=O)(=O)C(F)(F)F [AZD4320] + CC(=O)O[C@H]1C(=O)[C@@]2(C)[C@H]([C@H](OC(=O)c3ccccc3)[C@]3(O)C[C@H](OC(=O)[C@H](O)[C@@H](NC(=O)c4ccccc4)c4ccccc4)C(C)=C1C3(C)C)[C@]1(OC(C)=O)CO[C@@H]1C[C@@H]2O [Paclitaxel] (first compound max 1 µM, 7x7, partner max 3 µM) . Its Bliss excess was 0.0303

Entry under test: COc1nnc2ccc(N3CCC(c4ccc(OCCN5CCN(C)C(=O)[C@H]5C)cc4)CC3)nn12 [AZD5153] + Cc1c2c(nn1C)CSCc1cc(n(C)n1)CSc1cc(c3ccccc3c1)OCCCc1c(C(=O)O)n(C)c3c-2c(Cl)ccc13 [AZD5991] (first compound max 1 µM, 7x7, partner max 1 µM) . Its Bliss excess was 0.111

* * *

- Tested on: SNU-16 (Gastric Carcinoma)
- procedure details: combination Emax (second highest fraction inhibited in the dose matrix, 72 h); higher = more inhibition; extreme values may be limits of the assay
Could you please report measured combination Emax for the items listed next?
The reply should be a number, written without any unit.

Entry under test: CC1(C)CCC(CN2CCN(c3ccc(C(=O)NS(=O)(=O)c4ccc(NCC5CCOCC5)c([N+](=O)[O-])c4)c(Oc4cnc5[nH]ccc5c4)c3)CC2)=C(c2ccc(Cl)cc2)C1 [Venetoclax] + C[C@@H](Nc1cc(F)cc(F)c1)c1cc(C(=O)N(C)C)cc2c(=O)cc(N3CCOCC3)oc12 [AZD8186] (first compound max 1 µM, 7x7, partner max 3 µM) . Its combination Emax was 0.251

Entry under test: N#Cc1cnc(Nc2cc(NC[C@H]3CNCCO3)c(C(F)(F)F)cn2)cn1 [SRA737] + Nc1ccn([C@@H]2O[C@H](CO)[C@@H](O)C2(F)F)c(=O)n1 [Gemcitabine] (first compound max 10 µM, 7x7, partner max 0.3 µM) . Its combination Emax was 1

Entry under test: NC1(C(=O)N[C@@H](CCO)c2ccc(Cl)cc2)CCN(c2ncnc3[nH]ccc23)CC1 [Capivasertib] + CCN(CCO)CCCOc1ccc2c(Nc3cc(CC(=O)Nc4cccc(F)c4)[nH]n3)ncnc2c1 [AZD2811] (first compound max 10 µM, 7x7, partner max 1 µM) . Its combination Emax was 0.663

Entry under test: CC(=O)Nc1cccc(-n2c(=O)n(C3CC3)c(=O)c3c(Nc4ccc(I)cc4F)n(C)c(=O)c(C)c32)c1 [Trametinib] + Cc1nc(-c2cn3c(n2)-c2ccc(-c4cnn(C(C)(C)C(N)=O)c4)cc2OCC3)n(C(C)C)n1 [Taselisib] (first compound max 1 µM, 7x7, partner max 10 µM) . Its combination Emax was 0.955

Entry under test: C[C@@H](Nc1cc(F)cc(F)c1)c1cc(C(=O)N(C)C)cc2c(=O)cc(N3CCOCC3)oc12 [AZD8186] + CC(=O)c1c(C)c2cnc(Nc3ccc(N4CCNCC4)cn3)nc2n(C2CCCC2)c1=O [Palbociclib] (first compound max 10 µM, 7x7, partner max 10 µM) . Its combination Emax was 0.639

Entry under test: O=C(c1cc(Cc2n[nH]c(=O)c3ccccc23)ccc1F)N1CCN(C(=O)C2CC2)CC1 [Olaparib] + Cc1c2c(nn1C)CSCc1cc(n(C)n1)CSc1cc(c3ccccc3c1)OCCCc1c(C(=O)O)n(C)c3c-2c(Cl)ccc13 [AZD5991] (first compound max 10 µM, 7x7, partner max 1 µM) . Its combination Emax was 0.994

Entry under test: Cn1cnc2c(F)c(Nc3ccc(Br)cc3Cl)c(C(=O)NOCCO)cc21 [Selumetinib] + C=CCn1c(=O)c2cnc(Nc3ccc(N4CCN(C)CC4)cc3)nc2n1-c1cccc(C(C)(C)O)n1 [AZD1775] (first compound max 10 µM, partner max 1 µM) . Its combination Emax was 0.802

* * *

Could you please report measured combination Emax for the items listed next?
- Test system: GAMG (Glioblastoma)
- procedure details: combination Emax (second highest fraction inhibited in the dose matrix, 72 h); higher = more inhibition; extreme values may be limits of the assay

Entry under test: Cc1c2c(nn1C)CSCc1cc(n(C)n1)CSc1cc(c3ccccc3c1)OCCCc1c(C(=O)O)n(C)c3c-2c(Cl)ccc13 [AZD5991] + CCN(CCO)CCCOc1ccc2c(Nc3cc(CC(=O)Nc4cccc(F)c4)[nH]n3)ncnc2c1 [AZD2811] (first compound max 1 µM, 7x7, partner max 1 µM) . Its combination Emax was 0.534

Entry under test: Cc1c2c(nn1C)CSCc1cc(n(C)n1)CSc1cc(c3ccccc3c1)OCCCc1c(C(=O)O)n(C)c3c-2c(Cl)ccc13 [AZD5991] + Cc1cc2ncnn2cc1Nc1ncc2c(n1)n(C1CCOCC1)c(=O)n2C [AZD7648] (first compound max 1 µM, 7x7, partner max 10 µM) . Its combination Emax was 0.382

Entry under test: O=C(c1cc(Cc2n[nH]c(=O)c3ccccc23)ccc1F)N1CCN(C(=O)C2CC2)CC1 [Olaparib] + COc1nnc2ccc(N3CCC(c4ccc(OCCN5CCN(C)C(=O)[C@H]5C)cc4)CC3)nn12 [AZD5153] (first compound max 10 µM, 7x7, partner max 1 µM) . Its combination Emax was 0.448

Entry under test: Cn1cnc2c(F)c(Nc3ccc(Br)cc3Cl)c(C(=O)NOCCO)cc21 [Selumetinib] + C[C@@H]1COCCN1C2=NC(=NC(=C2)C3(CC3)[S@](=N)(=O)C)C4=C5C=CNC5=NC=C4 [AZD6738] (first compound max 10 µM, 7x7, partner max 10 µM) . Its combination Emax was 0.469

* * *

- Tested on: WSU-NHL (B-Cell Non-Hodgkin's Lymphoma)
- procedure details: Bliss excess, mean over the matrix (fraction); higher = more synergy
Could you please report measured Bliss excess for the items listed next?
The reply should be a number, written without any unit.

Entry under test: CN(CCO)CC[C@H](CSc1ccccc1)Nc1ccc(S(=O)(=O)NC(=O)c2ccc(N3CCC([C@@H](O)c4ccccc4-c4ccc(Cl)cc4)CC3)cc2)cc1S(=O)(=O)C(F)(F)F [AZD4320] + C=CCn1c(=O)c2cnc(Nc3ccc(N4CCN(C)CC4)cc3)nc2n1-c1cccc(C(C)(C)O)n1 [AZD1775] (first compound max 1 µM, partner max 1 µM) . Its Bliss excess was -0.0242

Entry under test: NC1(C(=O)N[C@@H](CCO)c2ccc(Cl)cc2)CCN(c2ncnc3[nH]ccc23)CC1 [Capivasertib] + CCN(CCO)CCCOc1ccc2c(Nc3cc(CC(=O)Nc4cccc(F)c4)[nH]n3)ncnc2c1 [AZD2811] (first compound max 10 µM, 7x7, partner max 1 µM) . Its Bliss excess was -0.0697

Entry under test: NC1(C(=O)N[C@@H](CCO)c2ccc(Cl)cc2)CCN(c2ncnc3[nH]ccc23)CC1 [Capivasertib] + COc1nnc2ccc(N3CCC(c4ccc(OCCN5CCN(C)C(=O)[C@H]5C)cc4)CC3)nn12 [AZD5153] (first compound max 10 µM, 7x7, partner max 1 µM) . Its Bliss excess was -0.0923
